Exercise: state measured MIC for each of the compounds provided.
Answer format: value, then unit.

Exam item: Give measured MIC for O=C(Cn1cc[n+](CC(OCc2ccc(Cl)cc2Cl)c2ccc(Cl)cc2Cl)c1)c1ccc(Cl)cc1Cl.[Cl-] (centres unmarked) (Cryptococcus neoformans).
Marked response: 1 µg/mL

Exam item: Give measured MIC for O=C(C[n+]1ccn(CC(OCc2ccc(Cl)cc2)c2ccc(Cl)cc2)c1)Nc1ccc(F)cc1 (centres unmarked) (Cryptococcus neoformans).
Marked response: 100 µg/mL

Exam item: Give measured MIC for C=CCOC(Cn1cc[n+](CC(=O)c2ccc(F)cc2)c1)c1ccc(Cl)cc1Cl (centres unmarked) (Cryptococcus neoformans).
Marked response: 100 µg/mL

Exam item: Give measured MIC for O=C(C[n+]1ccn(CC(OCc2ccc(Cl)cc2)c2ccc(Cl)cc2Cl)c1)c1ccc(F)cc1 (centres unmarked) [2,4(Cl)2C6H3/drawing 65/CH2COC6H4pF] (Cryptococcus neoformans).
Marked response: 10 µg/mL

Exam item: Give measured MIC for COc1cccc(C(=O)C[n+]2ccn(CC(OCc3ccc(Cl)cc3Cl)c3ccc(Cl)cc3Cl)c2)c1.[Br-] (centres unmarked) (Cryptococcus neoformans).
Marked response: 10 µg/mL

Exam item: Give measured MIC for Clc1ccc(C=CCn2cc[n+](CC(OCc3ccc(Cl)cc3Cl)c3ccc(Cl)cc3Cl)c2)c(Cl)c1.[Cl-] (centres unmarked) (Cryptococcus neoformans).
Marked response: 10 µg/mL

Exam item: Give measured MIC for O=C(C[n+]1ccn(CC(OCc2ccc(Cl)cc2)c2ccc(Cl)cc2)c1)c1ccc(F)cc1 (centres unmarked) (Cryptococcus neoformans).
Marked response: 10 µg/mL

Exam item: Give measured MIC for O=C(C[n+]1ccn(CC(OCc2ccc(Cl)cc2Cl)c2ccc(Cl)cc2Cl)c1)c1cccs1 (centres unmarked) (Cryptococcus neoformans).
Marked response: 10 µg/mL

Exam item: Give measured MIC for O=C(C[n+]1ccn(CC(OCc2ccc(Cl)cc2Cl)c2ccc(Cl)cc2)c1)c1ccc(F)cc1.[Cl-] (centres unmarked) (Cryptococcus neoformans).
Marked response: 10 µg/mL

Exam item: Give measured MIC for O=C(CC[n+]1ccn(CC(OCc2ccc(Cl)cc2Cl)c2ccc(Cl)cc2Cl)c1)Nc1ccccc1[N+](=O)[O-].[Cl-] (centres unmarked) (Cryptococcus neoformans).
Marked response: 100 µg/mL

Exam item: Give measured MIC for CCCCCCCC[n+]1ccn(CC(OCc2ccc(Cl)cc2Cl)c2ccc(Cl)cc2Cl)c1.[Br-] (centres unmarked) (Cryptococcus neoformans).
Marked response: 100 µg/mL

Exam item: Give measured MIC for O=C(Cn1cc[n+](CC(OCc2ccc(Cl)cc2Cl)c2ccc(Cl)cc2Cl)c1)c1ccc(Cl)cc1.[Br-] (centres unmarked) (Cryptococcus neoformans).
Marked response: 1 µg/mL

Exam item: Give measured MIC for O=C(C[n+]1ccn(CC(OCc2ccc(Cl)cc2Cl)c2ccc(Cl)cc2Cl)c1)c1ccc(Cl)s1 (centres unmarked) (Cryptococcus neoformans).
Marked response: 10 µg/mL

Exam item: Give measured MIC for OC(C[n+]1ccn(CC(OCc2ccc(Cl)cc2Cl)c2ccc(Cl)cc2Cl)c1)c1ccc(Cl)cc1 (centres unmarked) (Cryptococcus neoformans).
Marked response: 10 µg/mL

----------
# Tested on: Pseudomonas aeruginosa
# TEST_METHOD_NOTES: Antibacterial growth inhibition in phenol red dextrose broth
# Assay type: cell-based
# TEST_CONTEXT: 168 h, Ps. aer., tested at 100, 10, 1 μg/ml, read-out: Concentration in μ g for 100% Growth Inhibition
# Description: The tests on bacteria were performed on cultures on phenol red dextrose broth medium (Difco). By using decimal dilution techniques described for the tests for antifungal activity, test media containing 100 μg, 10 μg and 1 μg of imidazolium salt per milliliter of medium were obtained. The inoculum consisted of a platinum loop (5 mm diameter) from a 24 hour broth culture. […]
REPORTED_PROPERTY: MIC (µg/mL)
Report the figure in µg/mL without appending any unit label.

Exam item: Provide MIC value for the following molecule: Clc1ccc(COC(Cn2cc[n+](CCOc3ccccc3)c2)c2ccc(Cl)cc2Cl)c(Cl)c1.[Br-] (stereo not shown)
Marked response: 100

Exam item: Provide MIC value for the following molecule: COc1ccc(CC[n+]2ccn(CC(OCc3ccc(Cl)cc3Cl)c3ccc(Cl)cc3Cl)c2)cc1.[Cl-] (stereo not shown)
Marked response: 100

Exam item: Provide MIC value for the following molecule: O=C(C[n+]1ccn(CC(OCc2ccc(Cl)cc2)c2ccc(Cl)cc2)c1)Nc1ccc(F)cc1 (stereo not shown)
Marked response: 100

Exam item: Provide MIC value for the following molecule: O.OC(C[n+]1ccn(CC(OCc2ccc(Cl)cc2)c2ccc(Cl)cc2Cl)c1)c1ccc(Cl)cc1.[Br-] (stereo not shown)
Marked response: 100

Exam item: Provide MIC value for the following molecule: OC(C[n+]1ccn(CC(OCc2ccc(Cl)cc2Cl)c2ccc(Cl)cc2Cl)c1)c1ccc(Cl)cc1Cl.[Cl-] (stereo not shown)
Marked response: 100

Exam item: Provide MIC value for the following molecule: O=C(C[n+]1ccn(CC(OCc2c(Cl)cccc2Cl)c2ccc(Cl)cc2Cl)c1)Nc1ccc(F)cc1 (stereo not shown)
Marked response: 100

Exam item: Provide MIC value for the following molecule: Fc1ccc(C[n+]2ccn(CC(OCc3ccc(Cl)cc3Cl)c3ccc(Cl)cc3Cl)c2)cc1.[I-] (stereo not shown)
Marked response: 100
